Cited source for all entries: patent US20210388087A1

ASSAYED_SYSTEM: T1, Human CD3eg linker (human)
T1 construct: Single-chain construct; also called recombinant human CD3
T1 chain: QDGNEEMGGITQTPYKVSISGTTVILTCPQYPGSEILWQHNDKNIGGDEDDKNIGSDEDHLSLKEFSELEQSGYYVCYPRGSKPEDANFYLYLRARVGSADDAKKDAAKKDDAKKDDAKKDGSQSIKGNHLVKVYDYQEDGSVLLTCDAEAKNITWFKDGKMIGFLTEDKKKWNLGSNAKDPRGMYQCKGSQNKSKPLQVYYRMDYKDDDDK
ASSAY_COMMENT: SPR; fold vs parent H183/L072
Measured fold change of affinity, listed per entry.

BINDER	DATA_VALUE
H183/L072 VL Q24D (antibody, name in Kabat numbering, V domains shown) VH: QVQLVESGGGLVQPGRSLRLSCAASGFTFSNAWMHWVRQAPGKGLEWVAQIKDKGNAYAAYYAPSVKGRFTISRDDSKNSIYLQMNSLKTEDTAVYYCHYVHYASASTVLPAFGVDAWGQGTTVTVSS VL: DIVMTQSPLSLPVTPGEPASISCDASQELVHMNRNTYLHWYQQKPGQAPRLLIYKVSNRFPGVPDRFSGSGSGTDFTLKISRVEAEDVGVYYCAQGTSVPFTFGQGTKLEIK	1.2 fold
H183/L072 VL H27dN (antibody, name in Kabat numbering, V domains shown) VH: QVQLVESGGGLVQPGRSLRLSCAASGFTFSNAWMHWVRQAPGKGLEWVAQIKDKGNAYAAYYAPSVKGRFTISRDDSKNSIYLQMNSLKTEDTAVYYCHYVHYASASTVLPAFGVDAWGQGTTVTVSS VL: DIVMTQSPLSLPVTPGEPASISCQASQELVNMNRNTYLHWYQQKPGQAPRLLIYKVSNRFPGVPDRFSGSGSGTDFTLKISRVEAEDVGVYYCAQGTSVPFTFGQGTKLEIK	0 fold

Switching to the query record.
Asked: For H183/L072 VL V94F (antibody, name in Kabat numbering, V domains shown) VH: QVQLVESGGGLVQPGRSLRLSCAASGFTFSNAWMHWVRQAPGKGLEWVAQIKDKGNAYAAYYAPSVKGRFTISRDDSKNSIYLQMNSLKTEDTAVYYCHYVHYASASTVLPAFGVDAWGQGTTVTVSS VL: DIVMTQSPLSLPVTPGEPASISCQASQELVHMNRNTYLHWYQQKPGQAPRLLIYKVSNRFPGVPDRFSGSGSGTDFTLKISRVEAEDVGVYYCAQGTSFPFTFGQGTKLEIK , what is its reported fold change of affinity?
Given back: 0.2 fold
